Numbers sourced from patent US20220185900A1.

- experimental.system: T1, hRET.mmh (human, UniProt P07949 29-635, biotinylated in the ELISA of Example 4 (biot-hRET.mmh); not in the SPR of Example 3)
- T1 construct: also called biot-hRET.mmh; soluble monomeric human RET
- assay.method.text: SPR Biacore T200, mAb capture, 37 C
observation.type: pKd
# pKd: negative log10 of molar concentration; output just the value

{"binder": "H4H8080P (antibody, human IgG4, V domains shown, human IgG4 Fc (H4H prefix)) VH: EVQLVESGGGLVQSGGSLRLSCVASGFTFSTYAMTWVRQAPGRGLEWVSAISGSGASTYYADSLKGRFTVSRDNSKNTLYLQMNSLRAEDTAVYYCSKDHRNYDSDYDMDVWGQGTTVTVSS VL: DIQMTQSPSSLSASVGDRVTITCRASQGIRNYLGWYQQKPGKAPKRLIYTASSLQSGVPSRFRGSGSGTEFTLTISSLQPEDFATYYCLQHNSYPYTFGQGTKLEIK", "pKd": 8.03}
{"binder": "H4H8084P (antibody, human IgG4, V domains shown, human IgG4 Fc (H4H prefix)) VH: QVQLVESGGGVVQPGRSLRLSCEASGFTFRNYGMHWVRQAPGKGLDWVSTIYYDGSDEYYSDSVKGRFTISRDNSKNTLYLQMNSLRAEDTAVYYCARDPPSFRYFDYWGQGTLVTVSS VL: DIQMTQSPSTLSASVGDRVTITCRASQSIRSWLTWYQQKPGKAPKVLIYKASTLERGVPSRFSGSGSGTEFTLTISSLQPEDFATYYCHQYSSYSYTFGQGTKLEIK", "pKd": 8.81}

Query: pKd; subject: H4H8067P (antibody, human IgG4, V domains shown, human IgG4 Fc (H4H prefix)) VH: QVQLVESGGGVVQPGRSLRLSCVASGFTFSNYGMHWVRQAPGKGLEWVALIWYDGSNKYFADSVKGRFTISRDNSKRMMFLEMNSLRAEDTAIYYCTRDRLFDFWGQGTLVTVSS VL: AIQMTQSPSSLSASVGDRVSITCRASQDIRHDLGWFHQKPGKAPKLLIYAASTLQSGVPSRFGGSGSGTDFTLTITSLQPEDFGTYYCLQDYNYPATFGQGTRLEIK
8.14
